Parameter: CC50. Scope: all listed entries.
System: uninfected Hep2 cells
test-readout: CC50

1) c1ccc2[nH]c(Cn3c(CNCCCN4CCOCC4)nc4ccccc43)nc2c1: ≥ 100 µM
2) c1ccc2[nH]c(Cn3c(CNCCCN4CCCC4)nc4ccccc43)nc2c1: ≥ 100 µM
3) Oc1ccc(N2CCN(Cc3nc4ccccc4n3Cc3nc4ccccc4[nH]3)CC2)cc1: ≥ 100 µM
4) Cc1ccc(N2CCN(Cc3nc4ccccc4n3Cc3nc4ccccc4[nH]3)CC2)c(C)c1: ≥ 100 µM
5) O=C1C(=O)N(Cc2nc3ccccc3n2Cc2nc3ccccc3[nH]2)c2ccc([N+](=O)[O-])cc21: ≥ 100 µM
6) OCC1CCCN1Cc1nc2ccccc2n1Cc1nc2ccccc2[nH]1 (centres unmarked): ≥ 100 µM
7) O=C(OCc1ccccc1)N1CCCCN(Cc2nc3ccccc3n2Cc2nc3ccccc3[nH]2)CC1: ≥ 100 µM
8) COCCCNCc1nc2ccccc2n1Cc1nc2ccccc2[nH]1: ≥ 100 µM

* * *

Parameter: CC50. Scope: all listed entries.
System: uninfected Hep2 cells
test-readout: CC50

1. CC(C)NCc1nc2ccccc2n1Cc1nc2ccccc2[nH]1 [compound 152]: ≥ 100 µM
2. COc1cc(CNCc2nc3ccccc3n2Cc2nc3ccccc3[nH]2)cc(OC)c1 [compound 122]: ≥ 100 µM
3. CCOCCCNCc1nc2ccccc2n1Cc1nc2ccccc2[nH]1 [compound 182]: ≥ 100 µM
4. c1ccc2[nH]c(Cn3c(CN4CCC5CCCCC5C4)nc4ccccc43)nc2c1 (centres unmarked) [compound 234]: 24 µM
5. COc1ccc(CNCc2nc3ccccc3n2Cc2nc3ccccc3[nH]2)cc1 [compound 146]: ≥ 100 µM

* * *

Form: system (uninfected Hep2 cells), quantity (CC50), values below.
test-readout: CC50

1) CCN(Cc1nc2ccccc2n1Cc1nc2ccccc2[nH]1)C(C)C: 63 µM
2) COc1cccc(CNCc2nc3ccccc3n2Cc2nc3ccccc3[nH]2)c1OC: ≥ 100 µM
3) O=c1[nH]ccn1CCNCc1nc2ccccc2n1Cc1nc2ccccc2[nH]1: ≥ 100 µM
4) COc1ccc(N2CCN(Cc3nc4ccccc4n3Cc3nc4ccccc4[nH]3)CC2)cc1: ≥ 100 µM
5) c1ccc(CN2CCC(NCc3nc4ccccc4n3Cc3nc4ccccc4[nH]3)CC2)cc1: 95 µM
6) CN(CCc1ccccn1)Cc1nc2ccccc2n1Cc1nc2ccccc2[nH]1: ≥ 100 µM
7) CCCCCN(C)Cc1nc2ccccc2n1Cc1nc2ccccc2[nH]1: 80 µM
8) c1ccc2[nH]c(Cn3c(CNC4CC5CCC4C5)nc4ccccc43)nc2c1 (stereo not drawn): ≥ 100 µM
9) CN(C)CCCN(CCCN(C)C)Cc1nc2ccccc2n1Cc1nc2ccccc2[nH]1: ≥ 100 µM

* * *

Test system: uninfected Hep2 cells
Parameter: CC50. Scope: all listed entries.
test-readout: CC50

1) c1ccc(C(CNCc2nc3ccccc3n2Cc2nc3ccccc3[nH]2)c2ccccc2)cc1: ≥ 100 µM
2) CCCN(Cc1nc2ccccc2n1Cc1ccc(S(C)(=O)=O)cc1)CC1CC1: 97 µM
3) c1ccc2c(Cn3c(CN4CCCCC4)nc4ccccc43)c3ccccc3nc2c1: ≥ 100 µM
4) Clc1cccc(CNCc2nc3ccccc3n2Cc2nc3ccccc3[nH]2)c1: ≥ 100 µM
5) C#CCN(C)Cc1nc2ccccc2n1Cc1nc2ccccc2[nH]1: ≥ 100 µM

* * *

Form: system (uninfected Hep2 cells), quantity (CC50), values below.
test-readout: CC50

1. c1ccc2nc(Cn3c(CN4CCCCC4)nc4ccccc43)ccc2c1: 50 µM
2. FC(F)(F)c1ccc(CNCc2nc3ccccc3n2Cc2nc3ccccc3[nH]2)cc1: ≥ 100 µM
3. c1ccc2[nH]c(Cn3c(CN4CCCCC4)nc4ccccc43)nc2c1: ≥ 100 µM
4. CN1CCC(N(C)Cc2nc3ccccc3n2Cc2nc3ccccc3[nH]2)CC1: 58 µM
5. c1ccc(CCNCc2nc3ccccc3n2Cc2nc3ccccc3[nH]2)nc1: ≥ 100 µM
6. CCCNCc1nc2ccccc2n1Cc1nc2ccccc2[nH]1: ≥ 100 µM
7. COc1ccc(N(C)Cc2nc3ccccc3n2Cc2nc3ccccc3[nH]2)cc1: ≥ 100 µM
8. c1ccc2[nH]c(Cn3c(CN4CCC4)nc4ccccc43)nc2c1: 7.6 µM
9. CN(C)CCCNCc1nc2ccccc2n1Cc1nc2ccccc2[nH]1: ≥ 100 µM
10. CCOCCCNCc1nc2ccccc2n1Cc1nc2ccccc2[nH]1 [compound 159]: ≥ 100 µM
11. CCNCc1nc2ccccc2n1Cc1nc2ccccc2[nH]1: ≥ 100 µM
12. CC1C=CC(C)N1Cc1nc2ccccc2n1Cc1nc2ccccc2[nH]1 (stereo not drawn): ≥ 100 µM
13. CCN1CCN(Cc2nc3ccccc3n2Cc2nc3ccccc3[nH]2)CC1: ≥ 100 µM
14. COc1ccc(CCNCc2nc3ccccc3n2Cc2nc3ccccc3[nH]2)cc1: ≥ 100 µM
15. COc1cc2c(cc1OC)C(CC#N)N(Cc1nc3ccccc3n1Cc1nc3ccccc3[nH]1)CC2 (stereo not drawn): ≥ 100 µM
16. CC(C)N(Cc1nc2ccccc2n1Cc1c2ccccc2nc2ccccc12)C1CCCCC1: ≥ 100 µM
17. c1ccc(CC(NCc2nc3ccccc3n2Cc2nc3ccccc3[nH]2)c2ccccc2)cc1 (stereo not drawn): ≥ 100 µM
18. Cc1nc(Cn2c(CN(Cc3ccccc3)C(C)C)nc3ccccc32)cs1: 50 µM

* * *

Form: system (uninfected Hep2 cells), quantity (CC50), values below.
test-readout: CC50 (µM)

1. CCCN(Cc1nc2ccccc2n1Cc1csc(C)n1)CC1CC1: 50
2. CC1CCCCN1CCCNCc1nc2ccccc2n1Cc1nc2ccccc2[nH]1 (stereo not drawn): 88
3. Clc1ccc(CNCc2nc3ccccc3n2Cc2nc3ccccc3[nH]2)cc1Cl [compound 171]: 58
4. c1ccc2[nH]c(Cn3c(CNCCCn4ccnc4)nc4ccccc43)nc2c1 [compound 105]: 26

* * *

Form: system (uninfected Hep2 cells), quantity (log10(CC50)), values below.
test-readout: log10(CC50) (log10 of the value in µM)

1. C=CCN(C)Cc1nc2ccccc2n1Cc1nc2ccccc2[nH]1: 1.76
2. OCC1CCCN(Cc2nc3ccccc3n2Cc2nc3ccccc3[nH]2)C1 (stereo not drawn): 1.51
3. FC(F)(F)Oc1ccccc1Cn1c(CN2CCCCC2)nc2ccccc21 [compound 75]: 1.38
4. CN(Cc1nc2ccccc2n1Cc1nc2ccccc2[nH]1)CC(O)c1ccc(O)cc1 (stereo not drawn): 1.89
5. ClCc1nc2ccccc2n1Cc1nc2ccccc2[nH]1: 1.70
6. CCCCN(CCCC)CCCNCc1nc2ccccc2n1Cc1nc2ccccc2[nH]1: 0.97
7. c1ccc(Oc2cccc(Cn3c(CN4CCCCC4)nc4ccccc43)c2)cc1: 1.00
8. CCCCCCCCN(CCCCCCCC)Cc1nc2ccccc2n1Cc1nc2ccccc2[nH]1: 1.87
9. O=C1CCCN1CCCNCc1nc2ccccc2n1Cc1nc2ccccc2[nH]1 [compound 141]: 1.54
10. Clc1ccc(CNCc2nc3ccccc3n2Cc2nc3ccccc3[nH]2)cc1Cl [compound 138]: 0.81
11. OCC1CCCCN1Cc1nc2ccccc2n1Cc1nc2ccccc2[nH]1 (stereo not drawn): 0.90
12. CSc1ccc(Cn2c(CN(C(C)C)C3CCCCC3)nc3ccccc32)cc1: 1.48
13. Fc1cc(F)cc(CNCc2nc3ccccc3n2Cc2nc3ccccc3[nH]2)c1: 0.81
14. CSc1ccc(Cn2c(CN3CCCCC3)nc3ccccc32)cc1 [compound 76]: 1.04
15. c1ccc2[nH]c(Cn3c(CN4CCC(N5CCCC5)CC4)nc4ccccc43)nc2c1: 1.78
16. Clc1ccc(CCNCc2nc3ccccc3n2Cc2nc3ccccc3[nH]2)cc1: 1.20

* * *

Form: system (uninfected Hep2 cells), quantity (CC50), values below.
test-readout: CC50

1) CCCN(Cc1nc2ccccc2n1Cc1cc(F)cc2c1OCOC2)CC1CC1 [compound 24]: 82 µM
2) c1ccc2[nH]c(Cn3c(CNCc4ccc5c(c4)OCO5)nc4ccccc43)nc2c1 [compound 169]: ≥ 100 µM
3) O=[N+]([O-])c1ccc(Cn2c(CN3CCCCC3)nc3ccccc32)o1 [compound 54]: 97 µM
4) CC1CC(C)CN(Cc2nc3ccccc3n2Cc2nc3ccccc3[nH]2)C1 (stereo not drawn) [compound 205]: ≥ 100 µM
5) CCCCN(CC)Cc1nc2ccccc2n1Cc1nc2ccccc2[nH]1 [compound 92]: 68 µM
6) CCCCC(CO)NCc1nc2ccccc2n1Cc1nc2ccccc2[nH]1 (stereo not drawn) [compound 176]: ≥ 100 µM
7) C1=CCN(Cc2nc3ccccc3n2Cc2nc3ccccc3[nH]2)C1 [compound 201]: 19 µM
8) c1ccc2[nH]c(Cn3c(CN4CCCCCCC4)nc4ccccc43)nc2c1 [compound 233]: ≥ 100 µM
9) COc1ccccc1CCNCc1nc2ccccc2n1Cc1nc2ccccc2[nH]1 [compound 175]: ≥ 100 µM
10) c1coc(CNCc2nc3ccccc3n2Cc2nc3ccccc3[nH]2)c1 [compound 154]: ≥ 100 µM
11) FC(F)(F)c1cnc(N2CCCN(Cc3nc4ccccc4n3Cc3nc4ccccc4[nH]3)CC2)c(Cl)c1 [compound 215]: ≥ 100 µM
12) c1ccc(CN2CCC(NCc3nc4ccccc4n3Cc3nc4ccccc4[nH]3)C2)cc1 (stereo not drawn) [compound 149]: 39 µM
13) CCN(CC)CCNCc1nc2ccccc2n1Cc1nc2ccccc2[nH]1 [compound 162]: ≥ 100 µM
14) C=C(C)CN(CC)Cc1nc2ccccc2n1Cc1nc2ccccc2[nH]1 [compound 89]: ≥ 100 µM
15) CN(Cc1ccco1)Cc1nc2ccccc2n1Cc1nc2ccccc2[nH]1 [compound 85]: ≥ 100 µM
16) CNCc1nc2ccccc2n1Cc1nc2ccccc2[nH]1 [compound 164]: ≥ 100 µM
17) Fc1ccc(F)c(CNCc2nc3ccccc3n2Cc2nc3ccccc3[nH]2)c1 [compound 114]: ≥ 100 µM
18) CC(C)N(Cc1nc2ccccc2n1Cc1cccc(Oc2ccccc2)c1)C1CCCCC1 [compound 12]: ≥ 100 µM
